Test system: HSV-1 (KOS)
Experiment: microbe, parasite or virus in culture
Format: cell-based, herpes simplex virus type 1
Details: Human alphaherpesvirus 1, HEL, read-out: EC50 HSV-1 (KOS)
Give measured EC50 for each item. Keep answers brief.
Express your answer in µM, writing the number without its unit.

Data request: Dear colleague, I am looking for the recorded EC50 of the following molecule: Nc1nc(O)c2ncn(COC(CO)CO)c2n1 [Ganciclovir, reference compound]
Data returned: 0.025

Data request: Look at this molecule and give its reported EC50. O=c1oc2ccccc2c(O)c1C1c2cc([N+](=O)[O-])ccc2Oc2c1c(=O)oc1ccccc21 (stereo not shown)
Data returned: 50

Data request: Which EC50 value belongs to `O=c1oc2ccccc2c(O)c1C(c1cccc(Br)c1)c1c(O)c2ccccc2oc1=O` ?
Data returned: 9
